- targetEntity: human Bradykinin B1 receptor (Homo sapiens, UniProt P46663)
- Construct: host or cells: CHO-K1
- Sequence (P46663 whole entry): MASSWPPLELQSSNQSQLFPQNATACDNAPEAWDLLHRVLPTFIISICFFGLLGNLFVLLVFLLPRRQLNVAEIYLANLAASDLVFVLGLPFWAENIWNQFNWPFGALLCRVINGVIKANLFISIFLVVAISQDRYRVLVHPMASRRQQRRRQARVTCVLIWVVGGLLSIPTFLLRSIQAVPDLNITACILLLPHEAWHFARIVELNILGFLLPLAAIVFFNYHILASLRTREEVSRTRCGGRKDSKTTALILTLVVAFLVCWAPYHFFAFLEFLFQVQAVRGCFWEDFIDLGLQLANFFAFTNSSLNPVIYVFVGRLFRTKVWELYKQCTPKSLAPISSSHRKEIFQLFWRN
- experimentalDetails: Calcium flux Assay (FLIPR) with recombinant CHO-K1 cells expressing human Bradykinin B1 receptor, in presence (hB1 IC50) or absence (hB1 free IC50) of 0.1% BSA
- Assay type: cell-based
- runParameters: in absence of 0.1% BSA, read-out: hB1 free IC50
Please use the following IC50 ranges when assigning a class: low class (below 0.03 µM), middle class (0.03 µM to below 0.2 µM), high class (0.2 µM or more)

1. CCOc1ccc(-c2ncc(NC(=O)C3(c4ccc(C(F)(F)F)cc4F)CC3)cc2-c2nnn[nH]2)cn1 | middle class
2. O=C(Nc1cc(F)c(-c2ccc(C(F)(F)F)nc2)c(-c2nnn[nH]2)c1)C1(c2ccc(C(F)(F)F)cc2F)CC1 | low class
3. O=C(Nc1ccc(-c2ccc(C(F)(F)F)nc2)c(-c2nnn[nH]2)c1)C1(c2ccc(C(F)(F)F)cc2)CC1 | middle class
4. CCOc1ccc(-c2ccc(NC(=O)C3(c4ccc(Cl)cc4F)CC3)cc2-c2nnn[nH]2)cn1 | low class
5. Cc1ccc(C2(C(=O)Nc3ccc(-n4ccc(C(F)(F)F)n4)c(-c4nnn[nH]4)c3)CC2)c(F)c1 | middle class
6. O=C(Nc1ccc(-c2ccnc(F)c2)c(-c2nnn[nH]2)c1)C1(c2cccc(Cl)c2)CC1 | middle class
7. Cc1ccc(C2(C(=O)Nc3ccc(-n4cc(Cl)cn4)c(-c4nnn[nH]4)c3)CC2)c(F)c1 | middle class
8. Cc1ccc(-c2c(F)cc(NC(=O)C3(c4ccc(C(F)(F)F)cc4F)CC3)cc2-c2nnn[nH]2)cn1 | low class
9. CC(C)(C)c1cn(-c2ccc(NC(=O)C3(c4ccc(C(F)(F)F)cc4F)CC3)cc2-c2nnn[nH]2)cn1 | low class
10. CC(C)(C)c1cnn(-c2ccc(NC(=O)C3(c4ccc(C(F)(F)F)cc4F)CC3)cc2-c2nnn[nH]2)c1 | low class
11. O=C(Nc1ccc(-c2ccc(C(F)(F)F)nc2)c(-c2nnn[nH]2)c1F)C1(c2ccc(OC(F)(F)F)cc2F)CC1 | middle class
12. O=C(Nc1ccc(-c2ccc(C(F)(F)F)nc2)c(-c2nnn[nH]2)c1)C1(c2cc(F)cc(C(F)(F)F)c2)CC1 | middle class
13. O=C(Nc1ccc(-n2ccc(C(F)(F)F)n2)c(-c2nnn[nH]2)c1)C1(c2ccc(F)c(F)c2)CC1 | high class
14. CC(C)(O)Cc1ccc(-c2ccc(NC(=O)C3(c4cccc(Cl)c4)CC3)cc2-c2nnn[nH]2)cn1 | high class
15. CCOc1ccc(-c2ccc(NC(=O)C3(c4ccc(C(F)(F)F)cc4)CC3)cc2-c2nnn[nH]2)cn1 | low class
16. CO[C@H]1CC[C@@H](c2ccc(NC(=O)C3(c4cccc(Cl)c4F)CC3)cc2-c2nnn[nH]2)CC1 | high class
17. O=C(Nc1ccc(-c2cnc(C(F)(F)F)nc2)c(-c2nnn[nH]2)c1)C1(c2cccc(Cl)c2F)CC1 | high class
18. CCOc1cc(-c2ccc(NC(=O)C3(c4cccc(Cl)c4)CC3)cc2-c2nnn[nH]2)cc(C(F)(F)F)n1 | high class
19. O=C(Nc1cc(Cl)c(-c2ccc(C(F)(F)F)nc2)c(-c2nnn[nH]2)c1)C1(c2ccc(F)c(F)c2)CC1 | middle class
20. O=C(Nc1ccc(-c2ccc(C(F)F)nc2)c(-c2nnn[nH]2)c1)C1(c2ccc(F)cc2F)CC1 | low class
21. O=C(Nc1ccc(-n2cnc(C(F)(F)F)c2)c(-c2nnn[nH]2)c1)C1(c2ccc(OC(F)(F)F)cc2F)CC1 | low class
22. O=C(Nc1ccc(-c2cnc(NC3CC3)nc2)c(-c2nnn[nH]2)c1)C1(c2cccc(Cl)c2)CC1 | high class
23. CC(C)(C)c1ccn(-c2ccc(NC(=O)C3(c4cccc(Cl)c4)CC3)cc2-c2nnn[nH]2)n1 | high class
24. CC(C)(C)c1cnn(-c2ccc(NC(=O)C3(c4ccc(OC(F)(F)F)cc4F)CC3)cc2-c2nnn[nH]2)c1 | low class
25. CCOc1ccc(-c2cc(O)c(NC(=O)C3(c4cccc(Cl)c4)CC3)cc2-c2nnn[nH]2)cn1 | low class
26. O=C(Nc1ccc(-c2ccnc(C(F)(F)F)c2)c(-c2nnn[nH]2)c1)C1(c2ccc(F)c(Cl)c2)CC1 | high class
27. COc1cc(-c2ccc(NC(=O)C3(c4ccc(C(F)(F)F)cc4F)CC3)cc2-c2nnn[nH]2)cnc1C(F)(F)F | middle class

Entry source: patent US20210317092A1
